- System: α-amylase
- test.method.notes: α-Amylase inhibition assay
- Assay type: biochemical
- run.conditions: 5 μM
parameter: % age α-amylase inhibition (%)
Entry rule: numbers only, all in %.

- compound: "COc1cc(Br)c(C=NNc2nc(-c3ccc(F)cc3)cs2)cc1OC"
  % age α-amylase inhibition (%): 51.11
- compound: "COc1c(F)cccc1C=NNc1nc(-c2ccc(F)cc2)cs1"
  % age α-amylase inhibition (%): 49.08
- compound: "Fc1ccc(-c2csc(NN=Cc3cccs3)n2)cc1"
  % age α-amylase inhibition (%): 64.48

Return reported % age α-amylase inhibition; argument: CC(CCc1ccccc1)=NNc1nc(-c2ccc(F)cc2)cs1
45.41

// repeat for Oc1ccc(Cl)cc1C=NNc1nc(-c2ccc(F)cc2)cs1 and report
69.05

// repeat for Fc1ccc(-c2csc(NN=Cc3ccc[nH]3)n2)cc1 and report
52.79

// repeat for Cc1ccc(C=NNc2nc(-c3ccc(F)cc3)cs2)o1 and report
41.20

// repeat for CC(=NNc1nc(-c2ccc(F)cc2)cs1)c1ccc(F)cc1 and report
49.56

// repeat for CSc1ccccc1C=NNc1nc(-c2ccc(F)cc2)cs1 and report
43.03

// repeat for Fc1ccc(-c2csc(NN=Cc3ccccc3C(F)(F)F)n2)cc1 and report
57.72

// repeat for Fc1ccc(-c2csc(NN=Cc3ccc(C(F)(F)F)cc3)n2)cc1 and report
49.93

---

- system: Bovine serum albumin (BSA)-glucose model (Bos taurus, UniProt P02769)
- Sequence (P02769 25-607): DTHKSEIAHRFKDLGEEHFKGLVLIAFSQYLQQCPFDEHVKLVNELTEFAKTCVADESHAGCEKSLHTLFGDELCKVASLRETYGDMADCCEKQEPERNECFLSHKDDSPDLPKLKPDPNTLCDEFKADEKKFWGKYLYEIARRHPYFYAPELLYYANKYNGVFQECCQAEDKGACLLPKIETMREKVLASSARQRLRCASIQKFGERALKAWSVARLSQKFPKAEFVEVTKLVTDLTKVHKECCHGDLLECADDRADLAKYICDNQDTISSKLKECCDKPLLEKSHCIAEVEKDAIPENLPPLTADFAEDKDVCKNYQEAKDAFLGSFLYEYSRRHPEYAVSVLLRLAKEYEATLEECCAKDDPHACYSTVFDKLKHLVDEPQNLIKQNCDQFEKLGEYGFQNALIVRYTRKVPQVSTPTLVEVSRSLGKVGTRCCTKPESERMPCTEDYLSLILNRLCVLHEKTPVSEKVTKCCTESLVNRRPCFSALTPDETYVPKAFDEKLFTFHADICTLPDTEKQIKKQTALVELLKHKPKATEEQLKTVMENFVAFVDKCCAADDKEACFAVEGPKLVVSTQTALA
- test.method.notes: In vitro anti-glycation assay, BSA-glucose model
- Type: biochemical
- run.conditions: read-out: % age antiglycation inhibition
parameter: inhibition at 1000 ppm (%)
Entry rule: numbers only, all in %.

Take a look at these entries with their results.
- molecule: "CC(=NNc1nc(-c2ccc(F)cc2)cs1)c1cccc(Br)c1 [3f]"
  parameter: "inhibition at 1000 ppm"
  measured: 91.3
- molecule: "Oc1ccc(Cl)cc1C=NNc1nc(-c2ccc(F)cc2)cs1 [3h]"
  parameter: "inhibition at 1000 ppm"
  measured: 70.7
- molecule: "Fc1ccc(-c2csc(NN=Cc3ccccc3C(F)(F)F)n2)cc1 [3k]"
  parameter: "inhibition at 1000 ppm"
  measured: 91.6
- molecule: "Fc1ccc(-c2csc(NN=Cc3ccc(C(F)(F)F)cc3)n2)cc1 [3d]"
  parameter: "inhibition at 1000 ppm"
  measured: 92.3
- molecule: "Fc1ccc(-c2csc(NN=Cc3cccc(C(F)(F)F)c3)n2)cc1 [3i]"
  parameter: "inhibition at 1000 ppm"
  measured: 92.2

Recorded inhibition at 1000 ppm for CCOc1ccccc1C=NNc1nc(-c2ccc(F)cc2)cs1 [3j] with Bovine serum albumin (BSA)-glucose model (Bos taurus, UniProt P02769), please?
79.2

// repeat for Fc1ccc(-c2csc(NN=Cc3cccs3)n2)cc1 [3n] and report
87.8

// repeat for COc1cc(Br)c(C=NNc2nc(-c3ccc(F)cc3)cs2)cc1OC [3a] and report
89.9

// repeat for CC(=NNc1nc(-c2ccc(F)cc2)cs1)c1ccc(F)cc1 [3g] and report
74.6

// repeat for Cc1ccc(C=NNc2nc(-c3ccc(F)cc3)cs2)o1 [3e] and report
73.7

---

inhibition at 400 ppm values by entry
- system: Bovine serum albumin (BSA)-glucose model (Bos taurus, UniProt P02769)
- test.method.notes: In vitro anti-glycation assay, BSA-glucose model
- Type: biochemical
- run.conditions: read-out: % age antiglycation inhibition
Entry rule: numbers only, all in %.

Take a look at these entries with their results.
- smiles.input: "Oc1ccc(Cl)cc1C=NNc1nc(-c2ccc(F)cc2)cs1"
  system: "Bovine serum albumin (BSA)-glucose model (Bos taurus, UniProt P02769)"
  parameter: "inhibition at 400 ppm"
  quantity.unit: "%"
  measured: 65.5
- smiles.input: "COc1c(F)cccc1C=NNc1nc(-c2ccc(F)cc2)cs1"
  system: "Bovine serum albumin (BSA)-glucose model (Bos taurus, UniProt P02769)"
  parameter: "inhibition at 400 ppm"
  quantity.unit: "%"
  measured: 83
- smiles.input: "Fc1ccc(-c2csc(NN=Cc3cccs3)n2)cc1"
  system: "Bovine serum albumin (BSA)-glucose model (Bos taurus, UniProt P02769)"
  parameter: "inhibition at 400 ppm"
  quantity.unit: "%"
  measured: 82.1

Next item in the queue.
Return reported inhibition at 400 ppm; argument: CC(=NNc1nc(-c2ccc(F)cc2)cs1)c1cccc(Br)c1
87.3
